- Tested on: Alopecurus myosuroides
- PROTOCOL_SUMMARY: Herbicidal action (Example 25)
- Type: in vivo
- REPORTED_CONDITIONS: Alopecurus myosuroides, pre-emergence, preemergence, 4.0 kg/ha; read-out: percentage damage
Reported pest or weed control at 4000 g/ha values follow for various compounds
ASSAY_ENDPOINT: pest or weed control at 4000 g/ha

| COMPOUND | RESULT |
| --- | --- |
| c1ccc(CN2N=NC3C4CC(C5N=NC45)C32)cc1 (centres unmarked) [drawing 412] | 70% |
| c1ccc(N2N=NC3C4CC(C5N=NC45)C32)cc1 (centres unmarked) [drawing 410] | 85% |
| CN(C)C(=O)Nc1ccc(Oc2ccccc2)cc1 [drawing 424] | 25% |
| CC(C)OC(=O)Nc1cccc(Cl)c1 [drawing 423] | 95% |
| O=S(=O)(c1ccccc1)N1C2C3CC(C4N=NC34)C21 (centres unmarked) [drawing 414] | 80% |
| C=CCN(CC=C)C(=O)CCl [drawing 425] | 85% |
| Cc1ccc(N2N=NC3C4CC(C5N=NC45)C32)cc1 (centres unmarked) [drawing 413] | 40% |
| c1csc(N2N=NC3C4CC(C5N=NC45)C32)n1 (centres unmarked) [drawing 430] | 88% |

* * *

Reported growth height relative values follow for various compounds
- Test system: Arachis hypogaea
- PROTOCOL_SUMMARY: Growth-regulating action, postemergence, greenhouse (Example 35, Table 1)
- Type: in vivo
- REPORTED_CONDITIONS: 1.0 kg/ha, control 100

| COMPOUND | growth height relative |
| --- | --- |
| Clc1ccc(N2C3C4CC(C5N=NC45)C32)cc1Cl (stereo not shown) | 87 |
| c1cc2sncc2cc1N1C2C3CC(C4N=NC34)C21 (stereo not shown) | 75 |
| CN(C)NC(=O)CCC(=O)O [drawing 437, reference compound] | 44 |
| FC(F)(F)c1cccc(N2C3C4CC(C5N=NC45)C32)c1 (stereo not shown) [drawing 434] | 47 |

* * *

Reported pest or weed control at 2000 g/ha values follow for various compounds
- Tested on: Alopecurus myosuroides
- PROTOCOL_SUMMARY: Herbicidal action (Example 25)
- Type: in vivo
- REPORTED_CONDITIONS: Alopecurus myosuroides, post-emergence, postemergence, 2.0 kg/ha; read-out: percentage damage

| COMPOUND | pest or weed control at 2000 g/ha |
| --- | --- |
| CC(C)OC(=O)Nc1cccc(Cl)c1 [drawing 423] | 25% |
| C=CCN(CC=C)C(=O)CCl [drawing 425] | 28% |
| c1csc(N2N=NC3C4CC(C5N=NC45)C32)n1 (centres unmarked) [drawing 430] | 32% |
| CCc1cccc(CC)c1N(COC)C(=O)CCl | 50% |
| CN(C)C(=O)Nc1ccc(Oc2ccccc2)cc1 [drawing 424] | 15% |
| COc1ccc(NC(=O)N(C)C)cc1Cl | 70% |
| O=C(Nc1ccc(Cl)c(Cl)c1)C1CC1 | 30% |
| c1ccc(N2N=NC3C4CC(C5N=NC45)C32)cc1 (centres unmarked) [drawing 429] | 15% |

* * *

Reported percentage damage values follow for various compounds
- Tested on: Cyperus esculentus
- PROTOCOL_SUMMARY: Herbicidal action (Example 25)
- Format: in vivo
- REPORTED_CONDITIONS: preemergence, 4.0 kg/ha
ASSAY_ENDPOINT: percentage damage (percentage damage)

| COMPOUND | ASSAY_ENDPOINT | UNIT_ABBREVIATION | NUMERIC_VALUE |
| --- | --- | --- | --- |
| O=S(=O)(c1ccccc1)N1C2C3CC(C4N=NC34)C21 (centres unmarked) [drawing 414] | percentage damage | percentage damage | 0 |
| c1ccc(N2C3C4CC(C5N=NC45)C32)cc1 (centres unmarked) [drawing 411] | percentage damage | percentage damage | 60 |
| c1ccc(CN2N=NC3C4CC(C5N=NC45)C32)cc1 (centres unmarked) [drawing 412] | percentage damage | percentage damage | 55 |
| c1ccc(N2N=NC3C4CC(C5N=NC45)C32)cc1 (centres unmarked) [drawing 410] | percentage damage | percentage damage | 55 |
| Cc1ccc(N2N=NC3C4CC(C5N=NC45)C32)cc1 (centres unmarked) [drawing 413] | percentage damage | percentage damage | 0 |
